Assay: Acute toxicity in the mouse (LD50, Litchfield and Wilcoxon)
Details: in vivo, oral application
Assay Metric: LD50

Compound | Assay Metric | Observed Result
O=C(O)CCCCC(S)CCS (racemic) [dihydrolipoic acid, 6,8-dimercapto-octanoic acid] | LD50 | > 200 mg/kg
